- Experiment: NCI Yeast Anticancer Drug Screen. Data for the mlh1 rad18 strain (AID 175)
- Experimental conditions: S. cerevisiae mlh1 rad18 strain growth inhibition; at 50.0 µM
This is part of a sample that, as a whole, favours compounds with a hit. Of some 79,000 tested, about 15% had one in any assay. Calls of active or inactive are those of the source. Cut-off read from the data, not from the text of the source: active = growth inhibition above about 70%; inactive = the rest. Starred links: 1 amine or outer side, 2 acyl side, 3 side chain; linkers in the order of their positions; H or OH if unused. Positions of bridges follow the written chain, without caps; N, C: chain ends. Non-standard residues stand in square brackets, D forms with d. Residues, ends and D or L forms follow the SMILES beside them. Chains are numbered I, II in the order given. Actinocin(9to1) = Cc1c2oc3c(C)ccc(C(=O)[*:1])c3nc-2c(C(=O)[*:2])c(N)c1=O; aThr = C[C@H](O)[C@H](N)C(=O)O; NMeV = CN[C@H](C(=O)O)C(C)C; Sar = CNCC(=O)O
Outcome codes: active, inactive

{"Compound": "CN(C)CCn1c2ccccc2c2nc3cc4ccccc4cc3nc21", "Class": "active"}
{"Compound": "Clc1ccc(C(c2ccc(Cl)cc2)N2CCNCC2)cc1", "Class": "active"}
{"Compound": "Cc1c2oc3c(C)ccc(C(=O)N[C@@H]4C(=O)N[C@H](C(C)C)C(=O)N5CCC[C@H]5C(=O)N(C)CC(=O)N(C)[C@@H](C(C)C)C(=O)O[C@H]4C)c3nc-2c(C(=O)N[C@@H]2C(=O)N[C@H](C(C)C)C(=O)N3CCC[C@H]3C(=O)N(C)CC(=O)N(C)[C@@H](C(C)C)C(=O)O[C@H]2C)c(N)c1=O (I: [aThr][dV]P[Sar][NMeV] / II: [aThr][dV]P[Sar][NMeV]; ester I:1-I:C, II:1-II:C; linker I:N-II:N via Actinocin(9to1))", "Class": "active"}
{"Compound": "COc1ccc(/C(=N/O)c2ccccc2C2=Nc3ccccc3C(NCc3ccccc3)O2)cc1C (stereo not drawn)", "Class": "active"}
{"Compound": "CCOC(=O)/C=C1\\CCCn2c1ncc(C(=O)OCC)c2=O", "Class": "active"}
{"Compound": "Cc1c(N=Nc2ccc(Cl)cc2)c(C)n(C2OC(CO)C(O)C(O)C2O)c(=S)c1C#N (stereo not drawn)", "Class": "active"}
{"Compound": "c1ccc2cc(OCC3CO3)c(OCC3CO3)cc2c1 (stereo not drawn)", "Class": "active"}
{"Compound": "CCN(CC)c1cccc(Nc2nc3ccccc3s2)c1", "Class": "inactive"}
{"Compound": "Cc1ccccc1C1=C(CC(=O)O)c2ccccc2CC1C (stereo not drawn)", "Class": "active"}
{"Compound": "COc1cc(C(C)(C)C)cc(OC)c1C(O)(c1c(OC)cc(C(C)(C)C)cc1OC)c1c(OC)cc(C(C)(C)C)cc1OC", "Class": "active"}
{"Compound": "Cc1ccc(SSc2ccc(C)cc2[N+](=O)[O-])c([N+](=O)[O-])c1", "Class": "inactive"}
{"Compound": "CCOC(=O)C1=C(C)NC(C)=C(C(=O)OCC)C1c1ccc(Cl)cc1", "Class": "active"}
{"Compound": "O=C(O)NCC1CCCCC1 (tested in a mixture with another compound)", "Class": "inactive"}
{"Compound": "O=Cc1ccccc1B(O)O", "Class": "active"}
{"Compound": "COc1ccc2c(C)cc(N/N=C/c3sccc3C)nc2c1", "Class": "active"}
{"Compound": "CCOC(=O)C(NC(=O)c1ccccc1)[CH](c1ccccc1)[Sn]([c]1ccccc1)([c]1ccccc1)[c]1ccccc1 (stereo not drawn)", "Class": "active"}
{"Compound": "C=Cc1c(C)c(O)cc2c1-c1ccc(O)c(C)c1CC2", "Class": "active"}
{"Compound": "c1ccc(C2=NNC3c4ccccc4-c4ccccc4N3C2)cc1 (stereo not drawn)", "Class": "inactive"}

----------
- Experiment: NCI Yeast Anticancer Drug Screen. Data for the sgs1 strain (AID 173);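 note: 0% = growth of vehicle-only control cultures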
- Experimental conditions: S. cerevisiae sgs1 mutant, at 3.7 µM, stronger effect = higher value
Compounds without any hit were thinned out: in the full panel of roughly 79,000, 15% have a hit.
Endpoint label: growth inhibition (%)

{"Compound": "CN(C)N=Nc1ccc(NC=O)cc1", "Endpoint label": "growth inhibition", "Measured number": -5}
{"Compound": "O=c1c(Br)cc2c(-c3ccccc3)c3cc(Br)c(O)c(Br)c3oc-2c1Br", "Endpoint label": "growth inhibition", "Measured number": 8}
{"Compound": "CCOC(=O)C1=C(C)NC(C)=C(C(=O)OCC)C1c1ccc(Cl)cc1", "Endpoint label": "growth inhibition", "Measured number": 19}
{"Compound": "COc1ccc2cc(CN3CCC(C4CCN(Cc5ccc6cc(OC)ccc6c5)CC4)CC3)ccc2c1", "Endpoint label": "growth inhibition", "Measured number": 8}
{"Compound": "CCSc1c2ccccc2c(-c2nc(F)nc(F)n2)n1CCc1ccccc1", "Endpoint label": "growth inhibition", "Measured number": 32}
{"Compound": "O=C(O)NCC1CCCCC1 (tested in a mixture with another compound)", "Endpoint label": "growth inhibition", "Measured number": 6}

----------
growth inhibition: recorded values
- Experiment: NCI Yeast Anticancer Drug Screen. Data for the mec2-1 strain (AID 157)
- Experimental conditions: S. cerevisiae mec2-1 strain, at 3.7 µM, stronger effect = higher value
Compounds without any hit were thinned out: in the full panel of roughly 79,000, 15% have a hit.
Endpoint label: growth inhibition (%)

{"Molecule": "CCCC(=O)OC(OC(=O)CCC)c1ccc([N+](=O)[O-])o1", "Endpoint label": "growth inhibition", "Measured number": -1}
{"Molecule": "NCC(O)CSCc1ccc(Cl)cc1 (configuration not stated)", "Endpoint label": "growth inhibition", "Measured number": -2}
{"Molecule": "c1ccc2cc(OCC3CO3)c(OCC3CO3)cc2c1 (configuration not stated)", "Endpoint label": "growth inhibition", "Measured number": -18}
{"Molecule": "Cc1ccc(C(C)C)c(C(=C2C=CC(=[N+](C)C)C=C2)c2c(C(C)C)ccc(C)c2O)c1O", "Endpoint label": "growth inhibition", "Measured number": 16}
{"Molecule": "Cc1ccc2oc(-c3cccc(N)c3)nc2c1", "Endpoint label": "growth inhibition", "Measured number": -3}
{"Molecule": "COC(=O)C1(N2CCOCC2)CCC([C@@H](c2ccccc2)C(C)[N+](=O)[O-])C1 (some centres not stated)", "Endpoint label": "growth inhibition", "Measured number": 1}
{"Molecule": "CCOC(=O)C1=C(C)NC(C)=C(C(=O)OCC)C1c1ccc(Cl)cc1", "Endpoint label": "growth inhibition", "Measured number": -5}
{"Molecule": "CNc1ccc2[nH]c3ccccc3c2c1", "Endpoint label": "growth inhibition", "Measured number": 1}
{"Molecule": "O=c1c(Br)cc2c(-c3ccccc3)c3cc(Br)c(O)c(Br)c3oc-2c1Br", "Endpoint label": "growth inhibition", "Measured number": 4}
{"Molecule": "Cc1ccccc1C1=C(CC(=O)O)c2ccccc2CC1C (configuration not stated)", "Endpoint label": "growth inhibition", "Measured number": 20}
{"Molecule": "Cc1ccc(Nc2n[nH]c(=S)s2)cc1C", "Endpoint label": "growth inhibition", "Measured number": 0}
{"Molecule": "NNc1nnc(-c2ccccc2)nc1Cc1ccccc1", "Endpoint label": "growth inhibition", "Measured number": -9}

----------
- Experiment: NCI Yeast Anticancer Drug Screen. Data for the CLN2oe strain (AID 163);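 note: 0% = growth of vehicle-only control cultures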
- Experimental conditions: S. cerevisiae CLN2oe strain, at 33.0 µM, stronger effect = higher value
Compounds without any hit were thinned out: in the full panel of roughly 79,000, 15% have a hit.

{"Compound": "COc1ccc(/C=C2\\CCc3ccccc3C2=O)cc1OC", "growth inhibition [%]": 37}
{"Compound": "CC(=O)c1ccc(NCN2C(=O)c3ccccc3C2=O)cc1", "growth inhibition [%]": 53}
{"Compound": "Cc1ccc(N(C=O)c2c([N+](=O)[O-])cc([N+](=O)[O-])c3c2=[N+]([O-])CN=3)cc1", "growth inhibition [%]": 95}
{"Compound": "O=Cn1c2ccccc2c2ccccc21", "growth inhibition [%]": -21}
{"Compound": "CCCCCCCCCCCCCCCCCN", "growth inhibition [%]": 98}
{"Compound": "Cc1ccc(C(C)C)c(C(=C2C=CC(=[N+](C)C)C=C2)c2c(C(C)C)ccc(C)c2O)c1O", "growth inhibition [%]": 93}
{"Compound": "N=C(N)c1ccc(N=Nc2c(O)ccc3c2[nH]c2ccccc23)cc1", "growth inhibition [%]": 93}
{"Compound": "Clc1ccc(C(c2ccc(Cl)cc2)N2CCNCC2)cc1", "growth inhibition [%]": 18}
{"Compound": "CCCCCCCCCCCCCCCCOCC(Cl)COP(=O)(O)OP(=O)(O)OCC1OC(n2cnc3c(N)ncnc32)C(O)C1O (configuration not stated)", "growth inhibition [%]": 24}
{"Compound": "c1cncc(C(Nc2cccc3cccnc23)Nc2cccc3cccnc23)c1", "growth inhibition [%]": 3}
{"Compound": "CC(=O)CC[N+](C)(C)C", "growth inhibition [%]": 31}
{"Compound": "CN(C)N=Nc1ccc(NC=O)cc1", "growth inhibition [%]": 98}
{"Compound": "COc1ccc(C(=O)OCCc2ccccc2)cc1", "growth inhibition [%]": -7}
{"Compound": "CCOC(=O)C1=C(C)NC(C)=C(C(=O)OCC)C1c1ccc(Cl)cc1", "growth inhibition [%]": 83}
{"Compound": "O=C(CSS(=O)(=O)O)c1ccccc1", "growth inhibition [%]": 2}
{"Compound": "CC[C@]1(O)C[C@H]2CN(CCc3c([nH]c4ccccc34)[C@@](C(=O)OC)(c3cc4c(cc3OC)N(C)[C@H]3[C@@](O)(C(=O)OC)[C@H](OC(C)=O)[C@]5(CC)C=CCN6CC[C@]43[C@@H]65)C2)C1", "growth inhibition [%]": -11}
{"Compound": "CCOc1ccc2ccc3cccnc3c2n1", "growth inhibition [%]": 4}
{"Compound": "CCOC(=O)C1=C(C)NC(C)=C(C(=O)OCC)C1c1cccc([N+](=O)[O-])c1", "growth inhibition [%]": 31}
{"Compound": "Cc1cccc(N2CCN(C(=O)/C(=C/c3ccccc3)NC(=O)c3ccccc3)CC2)c1", "growth inhibition [%]": 38}
{"Compound": "CN(C)N1C(=O)SCC(c2ccccc2)(c2ccccc2)C1=O", "growth inhibition [%]": 1}
{"Compound": "Oc1ccc(Br)cc1C=Nc1cccc(C(F)(F)F)c1", "growth inhibition [%]": 1}
{"Compound": "N#C/C(=C1C=C/C(=N\\O)C(Cl)=C\\1)c1ccccc1", "growth inhibition [%]": 15}
